# measured.target: Indoleamine 2,3-dioxygenase 1 (Homo sapiens, UniProt P14902)
# Sequence (P14902 whole entry, looked up): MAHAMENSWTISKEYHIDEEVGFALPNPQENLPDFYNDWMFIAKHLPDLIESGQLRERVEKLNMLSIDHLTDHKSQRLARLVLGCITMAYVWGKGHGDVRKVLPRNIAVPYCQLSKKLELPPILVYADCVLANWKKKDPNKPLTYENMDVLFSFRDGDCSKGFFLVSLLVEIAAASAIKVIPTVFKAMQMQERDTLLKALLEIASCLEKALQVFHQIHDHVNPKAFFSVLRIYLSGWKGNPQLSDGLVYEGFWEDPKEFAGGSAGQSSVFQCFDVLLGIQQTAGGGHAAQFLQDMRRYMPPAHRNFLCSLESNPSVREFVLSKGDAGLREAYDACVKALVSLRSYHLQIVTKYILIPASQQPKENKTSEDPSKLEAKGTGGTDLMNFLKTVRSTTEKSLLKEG
# assay: Inhibition of recombinant human IDO1 in HeLa cells at 100 nM relative to control
# Type: cell-based
readout.kind: inhibition (%)

These recorded examples may help you get a feel for the data.
C[C@H](N/C(=N\O)c1nonc1NCCn1cc(CNC(=O)c2ccc[nH]2)nn1)c1cccc(Br)c1 :: 14
C[C@H](N/C(=N\O)c1nonc1NCCn1cc(CNC(=O)c2ccccn2)nn1)c1cccc(Br)c1 :: 3
O=C(NCc1cn(CCNc2nonc2/C(=N/O)NCc2cccc(Br)c2)nn1)c1ccc[nH]1 :: 12
O=C(NCc1cn(CCNc2nonc2/C(=N/O)Nc2cccc(Br)c2)nn1)c1ccccn1 :: 71
O=C(NCc1cn(CCNc2nonc2/C(=N/O)NCc2ccc(Br)cc2)nn1)c1ccc[nH]1 :: 4

a = O=C(NCc1cn(CCNc2nonc2/C(=N/O)Nc2ccc(F)cc2)nn1)c1ccccn1
b = O=C(NCc1cn(CCNc2nonc2/C(=N/O)NCc2ccccc2Br)nn1)c1ccc[nH]1
c = O=C(NCc1cn(CCNc2nonc2/C(=N/O)NCc2cccc(Br)c2)nn1)c1ccccn1
d = O=C(NCc1cn(CCNc2nonc2/C(=N/O)Nc2ccc(F)c(Br)c2)nn1)c1ccccn1
e = O=C(NCc1cn(CCNc2nonc2/C(=N/O)NCc2ccc(F)c(Br)c2)nn1)c1ccc[nH]1
Lookup: Parameters: sort_field (inhibition), sort_dir (desc). Lab note: final answer is the ordered label list.
Found: d, c, e, a, b
(d: 72%, c: 26%, e: 17%, a: 4%, b: 1%)

1 = Cc1cc(Br)cc(N/C(=N\O)c2nonc2NCCn2cc(CNC(=O)c3ccccn3)nn2)c1
2 = O=C(NCc1cn(CCNc2nonc2/C(=N/O)NCc2ccc(F)cc2)nn1)c1ccccn1
Lookup: Please compare: 1 and 2 . Report which one has the smaller inhibition value. Answer = label.
Found: 2

P = O=C(NCc1cn(CCNc2nonc2/C(=N/O)NCc2ccc(F)c(Br)c2)nn1)c1ccccn1
Q = O=C(NCc1cn(CCNc2nonc2/C(=N/O)Nc2ccc(F)c(C(F)(F)F)c2)nn1)c1ccccn1
Lookup: Which value of inhibition is greater, the one for P or the one for Q ? Answer = label.
Found: Q

a = Cc1ccc(Br)cc1N/C(=N\O)c1nonc1NCCn1cc(CNC(=O)c2ccccn2)nn1
b = O=C(NCc1cn(CCNc2nonc2/C(=N/O)Nc2cc(Br)cc(C(F)(F)F)c2)nn1)c1ccccn1
Lookup: Please compare: a and b . Report which one has the smaller inhibition value. Answer = label.
Found: b
(b: 5%, a: 18%)

1 = O=C(NCc1cn(CCNc2nonc2/C(=N/O)NCc2ccc(Br)cc2)nn1)c1ccccn1
2 = O=C(NCc1cn(CCNc2nonc2/C(=N/O)Nc2ccc(F)c(Cl)c2)nn1)c1ccccn1
Lookup: Please compare: 1 and 2 . Report which one has the smaller inhibition value. Answer = label.
Found: 1
(1: 0%, 2: 52%)

----------
# assay: Oral bioavailability in Sprague-Dawley rat at 10 mg/kg
# Type: ADME, organism-based
# condition.description: in vivo
readout.kind: bioavailability (%)
Field format: number, assumed %, no unit text.

Lookup: Can you look up the measured bioavailability of `O=C(NCc1cn(CCNc2nonc2/C(=N/O)NCc2cccc(Br)c2)nn1)c1ccccn1` for me?
Found: 17.9
